Kindly state IC50 for each of the entries shown.
# SYSTEM_TESTED: recombinant human Mcl-1 (Homo sapiens, UniProt Q07820)
# Construct: C-terminally 6×His tagged Mcl-1 containing residues 171-327
# Sequence (Q07820 171-327): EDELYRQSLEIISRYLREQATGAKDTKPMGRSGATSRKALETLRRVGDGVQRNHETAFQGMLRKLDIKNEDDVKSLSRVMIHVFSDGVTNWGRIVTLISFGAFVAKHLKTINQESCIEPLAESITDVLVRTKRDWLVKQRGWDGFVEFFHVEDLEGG
# ASSAY_PROCEDURE: Cell free Mcl-1:Bim affinity assay (Mcl-1 HTRF, TR-FRET)
# CONDITION_PARAMETERS: inhibition of Mcl-1/Bim interaction
The answer is to be given in nM; state only the numeric part.

IN: # IC50 lookup, item CC(C)[C@@H]1[C@H](C)C/C=C/[C@H](O)[C@@H]2CC[C@H]2CN2C[C@@]3(CCCc4cc(Cl)ccc43)COc3ccc(cc32)C(=O)NS1(=O)=O (single isomer, unassigned) [Example 49]
OUT: 0.317

IN: Again, but for COCCO[C@H]1/C=C/C[C@@H](C)[C@@H](C(C)C)S(=O)(=O)NC(=O)c2ccc3c(c2)N(C[C@@H]2CC[C@H]21)C[C@@]1(CCCc2cc(Cl)ccc21)CO3
OUT: 0.153

IN: Again, but for CO[C@H]1CCC[C@H](C)[C@@H](C)S(=O)(=O)NC(=O)c2ccc3c(c2)N(C[C@@H]2CC[C@H]21)C[C@@]1(CCCc2cc(Cl)ccc21)CO3
OUT: 1.18
